A set of compounds tested on TTK (Homo sapiens), with measured IC50:

Q) Quick one: IC50 for COc1ccc(CSc2nnc(-c3ccnc(N)c3)o2)cc1F ?
A) > 10 µM

Q) Param item = COc1ccc(CSc2nnc(-c3ccc4c(c3)OCO4)o2)cc1F [Reference Example 71, reference compound] ; retrieve measured IC50.
A) > 10 µM

Q) Endpoint output: IC50 of COc1ccc(-c2coc3ccc(-c4nnc(SC)o4)cc23)cc1 . Value?
A) > 10 µM

----------
Reported IC50, JNK1 (Homo sapiens, UniProt P45983).

COc1ccc(CSc2nnc(-c3ccc4c(c3)OCO4)o2)cc1F [Reference Example 71, reference compound] ... > 10 µM

Now consider the entry below.
Q) IC50 of COc1ccc(CSc2nnc(-c3ccnc(N)c3)o2)cc1F [Example 209] on JNK1 (Homo sapiens, UniProt P45983)?
A) > 10 µM

----------
molecular target: p38α (Homo sapiens, UniProt Q16539)
Sequence (Q16539 whole entry): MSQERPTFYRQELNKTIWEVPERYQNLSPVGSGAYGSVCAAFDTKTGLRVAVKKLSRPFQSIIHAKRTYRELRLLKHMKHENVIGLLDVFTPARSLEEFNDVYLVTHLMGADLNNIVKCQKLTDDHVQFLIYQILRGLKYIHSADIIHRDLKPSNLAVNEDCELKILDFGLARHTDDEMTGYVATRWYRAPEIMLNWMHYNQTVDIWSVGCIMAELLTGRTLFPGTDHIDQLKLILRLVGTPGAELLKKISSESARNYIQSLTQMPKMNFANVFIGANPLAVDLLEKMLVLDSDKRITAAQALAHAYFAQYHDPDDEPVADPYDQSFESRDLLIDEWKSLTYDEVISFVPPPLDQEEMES
pIC50: −log10 of the molar value.
observation_type: pIC50

Q) Provide the documented pIC50 with p38α (Homo sapiens, UniProt Q16539) as the system for COc1ccc(CSc2nnc(-c3ccc4c(c3)OCO4)o2)cc1F [Reference Example 71, reference compound]
A) < 5.00

----------
pIC50: −log10 of the molar value.
// endpoint pIC50 / system MEK5 (Homo sapiens, UniProt Q13163)

As a guide, the following entries are already answered.
COc1ccc(CSc2nnc(-c3ccc4c(c3)OCO4)o2)cc1F [Reference Example 71, reference compound] ... < 5.00
COc1ccc(-c2coc3ccc(-c4nnc(SC)o4)cc23)cc1 ... < 5.00

Attention now shifts to the item below.
Q) Fill in: pIC50 of COc1ccc(CSc2nnc(-c3ccnc(N)c3)o2)cc1F is ___
A) < 5.00

----------
biological target: TAK1 (Homo sapiens, UniProt O43318)
Sequence (O43318 whole entry): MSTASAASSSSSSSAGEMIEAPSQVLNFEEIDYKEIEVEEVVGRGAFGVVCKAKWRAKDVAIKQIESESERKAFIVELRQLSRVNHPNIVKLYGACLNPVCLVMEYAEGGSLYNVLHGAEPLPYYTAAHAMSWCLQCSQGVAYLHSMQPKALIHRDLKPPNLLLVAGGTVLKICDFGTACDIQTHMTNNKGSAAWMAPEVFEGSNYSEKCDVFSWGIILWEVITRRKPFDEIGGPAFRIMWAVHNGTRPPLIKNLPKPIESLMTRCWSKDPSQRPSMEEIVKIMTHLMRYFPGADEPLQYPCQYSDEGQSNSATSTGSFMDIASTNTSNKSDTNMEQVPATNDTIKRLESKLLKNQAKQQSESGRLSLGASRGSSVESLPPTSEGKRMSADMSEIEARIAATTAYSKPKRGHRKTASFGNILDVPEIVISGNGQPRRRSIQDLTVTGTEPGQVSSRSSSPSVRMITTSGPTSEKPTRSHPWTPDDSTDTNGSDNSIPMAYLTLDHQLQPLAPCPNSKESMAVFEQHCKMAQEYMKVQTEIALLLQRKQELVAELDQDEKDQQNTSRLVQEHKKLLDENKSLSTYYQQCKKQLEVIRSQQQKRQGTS
Sequence (Q15750 whole entry, further chain): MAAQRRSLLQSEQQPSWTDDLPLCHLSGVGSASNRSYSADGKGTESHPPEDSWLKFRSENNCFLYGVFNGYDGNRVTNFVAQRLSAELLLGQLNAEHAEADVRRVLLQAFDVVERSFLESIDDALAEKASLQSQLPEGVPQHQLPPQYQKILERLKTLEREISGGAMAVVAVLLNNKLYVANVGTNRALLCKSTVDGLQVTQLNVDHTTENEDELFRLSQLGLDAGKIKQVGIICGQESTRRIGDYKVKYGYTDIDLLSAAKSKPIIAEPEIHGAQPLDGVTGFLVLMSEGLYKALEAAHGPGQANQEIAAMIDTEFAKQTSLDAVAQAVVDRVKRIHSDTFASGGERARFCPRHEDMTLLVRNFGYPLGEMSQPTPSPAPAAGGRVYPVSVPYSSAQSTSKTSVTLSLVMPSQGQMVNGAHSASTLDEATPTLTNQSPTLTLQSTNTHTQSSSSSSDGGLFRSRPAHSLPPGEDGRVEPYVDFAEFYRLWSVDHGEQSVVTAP
pIC50: −log10 of the molar value.
Listed here: items and their measured pIC50.

Look over these answered cases.
COc1ccc(CSc2nnc(-c3ccnc(N)c3)o2)cc1F ... < 5.00
COc1ccc(-c2coc3ccc(-c4nnc(SC)o4)cc23)cc1 ... < 5.00

Attention now turns to another entry.
Q) Data request, read-out pIC50, for COc1ccc(CSc2nnc(-c3ccc4c(c3)OCO4)o2)cc1F [Reference Example 71, reference compound]
A) < 5.00

----------
pIC50: −log10 of the molar value.
Hi! I'm sharing some pIC50 results obtained with ASK1 (Homo sapiens, UniProt Q99683).
Sequence (Q99683 whole entry): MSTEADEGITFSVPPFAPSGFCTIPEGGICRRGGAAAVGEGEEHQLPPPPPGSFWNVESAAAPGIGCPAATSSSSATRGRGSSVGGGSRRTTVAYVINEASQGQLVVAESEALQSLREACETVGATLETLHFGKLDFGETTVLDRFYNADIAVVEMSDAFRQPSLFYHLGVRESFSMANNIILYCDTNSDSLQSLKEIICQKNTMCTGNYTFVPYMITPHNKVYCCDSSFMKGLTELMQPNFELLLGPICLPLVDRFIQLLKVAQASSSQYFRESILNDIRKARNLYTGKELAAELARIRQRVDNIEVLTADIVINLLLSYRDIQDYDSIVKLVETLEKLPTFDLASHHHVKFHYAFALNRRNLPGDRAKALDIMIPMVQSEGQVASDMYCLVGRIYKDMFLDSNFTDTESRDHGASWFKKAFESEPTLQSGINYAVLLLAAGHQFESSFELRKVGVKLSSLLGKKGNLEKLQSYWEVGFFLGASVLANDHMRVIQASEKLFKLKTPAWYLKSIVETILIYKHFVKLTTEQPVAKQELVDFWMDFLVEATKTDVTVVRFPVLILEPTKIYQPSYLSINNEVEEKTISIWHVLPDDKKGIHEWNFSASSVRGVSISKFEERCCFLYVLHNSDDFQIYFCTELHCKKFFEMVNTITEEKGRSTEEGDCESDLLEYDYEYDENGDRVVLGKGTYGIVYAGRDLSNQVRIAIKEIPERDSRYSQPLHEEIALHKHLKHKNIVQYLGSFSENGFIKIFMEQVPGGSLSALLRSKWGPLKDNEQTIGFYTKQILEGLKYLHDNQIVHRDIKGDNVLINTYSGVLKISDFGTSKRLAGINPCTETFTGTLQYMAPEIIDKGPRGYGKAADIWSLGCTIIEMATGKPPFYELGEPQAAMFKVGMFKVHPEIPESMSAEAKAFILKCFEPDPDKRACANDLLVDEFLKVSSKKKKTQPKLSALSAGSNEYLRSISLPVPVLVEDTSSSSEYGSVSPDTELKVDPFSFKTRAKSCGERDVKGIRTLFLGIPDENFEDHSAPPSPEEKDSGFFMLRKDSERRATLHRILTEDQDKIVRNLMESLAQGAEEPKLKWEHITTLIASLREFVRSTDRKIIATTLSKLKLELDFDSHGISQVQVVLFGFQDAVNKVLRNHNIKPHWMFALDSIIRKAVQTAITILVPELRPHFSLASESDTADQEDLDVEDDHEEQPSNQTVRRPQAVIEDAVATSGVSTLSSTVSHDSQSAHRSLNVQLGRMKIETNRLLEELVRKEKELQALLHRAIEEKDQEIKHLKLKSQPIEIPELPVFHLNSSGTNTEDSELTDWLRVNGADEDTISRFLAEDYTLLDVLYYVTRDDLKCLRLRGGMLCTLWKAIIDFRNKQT

COc1ccc(CSc2nnc(-c3ccnc(N)c3)o2)cc1F ... < 5.00

Q) Entry COc1ccc(CSc2nnc(-c3ccc4c(c3)OCO4)o2)cc1F [Reference Example 71, reference compound] , system ASK1 (Homo sapiens, UniProt Q99683): what pIC50 was measured?
A) < 5.00

----------
molecular target: MEKK1 (Homo sapiens, UniProt Q13233)
Sequence (Q13233 whole entry, species assumed): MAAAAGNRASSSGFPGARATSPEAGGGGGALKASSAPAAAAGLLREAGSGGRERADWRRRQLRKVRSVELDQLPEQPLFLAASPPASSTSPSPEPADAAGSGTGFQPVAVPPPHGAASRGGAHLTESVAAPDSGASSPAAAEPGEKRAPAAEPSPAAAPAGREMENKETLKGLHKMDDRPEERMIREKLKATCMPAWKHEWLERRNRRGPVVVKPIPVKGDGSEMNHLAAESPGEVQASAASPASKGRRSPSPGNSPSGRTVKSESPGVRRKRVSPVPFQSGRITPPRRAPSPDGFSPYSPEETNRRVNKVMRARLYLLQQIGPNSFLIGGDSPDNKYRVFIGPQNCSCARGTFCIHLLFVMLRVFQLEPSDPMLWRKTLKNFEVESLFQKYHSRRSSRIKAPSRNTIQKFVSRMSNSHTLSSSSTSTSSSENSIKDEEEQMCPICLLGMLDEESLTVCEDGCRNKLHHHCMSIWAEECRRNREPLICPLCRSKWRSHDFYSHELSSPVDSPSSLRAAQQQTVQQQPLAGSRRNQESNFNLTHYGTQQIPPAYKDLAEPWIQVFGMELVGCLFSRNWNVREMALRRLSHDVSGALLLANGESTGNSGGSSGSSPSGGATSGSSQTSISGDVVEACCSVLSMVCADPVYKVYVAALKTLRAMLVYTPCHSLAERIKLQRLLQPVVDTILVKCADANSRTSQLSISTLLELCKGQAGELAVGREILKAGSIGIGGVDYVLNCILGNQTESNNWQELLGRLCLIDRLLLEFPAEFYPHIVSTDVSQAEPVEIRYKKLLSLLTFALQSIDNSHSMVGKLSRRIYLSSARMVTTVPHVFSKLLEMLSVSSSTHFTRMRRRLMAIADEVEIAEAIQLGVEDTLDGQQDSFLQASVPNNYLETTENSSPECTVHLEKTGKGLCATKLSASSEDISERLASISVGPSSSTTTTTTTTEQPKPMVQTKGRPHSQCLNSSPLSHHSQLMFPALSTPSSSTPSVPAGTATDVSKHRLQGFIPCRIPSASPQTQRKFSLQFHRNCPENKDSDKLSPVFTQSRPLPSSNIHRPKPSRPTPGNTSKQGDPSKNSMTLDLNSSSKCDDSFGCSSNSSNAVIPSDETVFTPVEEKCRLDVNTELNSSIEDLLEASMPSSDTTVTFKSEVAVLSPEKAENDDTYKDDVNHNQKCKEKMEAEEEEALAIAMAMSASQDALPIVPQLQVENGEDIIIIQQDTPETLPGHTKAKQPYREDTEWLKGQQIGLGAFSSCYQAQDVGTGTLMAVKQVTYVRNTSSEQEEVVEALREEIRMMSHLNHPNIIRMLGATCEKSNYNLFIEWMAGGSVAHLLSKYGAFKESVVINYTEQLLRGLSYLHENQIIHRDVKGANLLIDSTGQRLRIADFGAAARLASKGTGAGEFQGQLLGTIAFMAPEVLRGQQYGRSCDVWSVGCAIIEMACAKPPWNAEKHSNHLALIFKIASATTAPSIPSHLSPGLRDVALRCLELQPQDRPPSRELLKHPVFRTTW
observation_type: IC50

Q) # value lookup — system MEKK1 (Homo sapiens, UniProt Q13233), readout IC50, item COc1ccc(CSc2nnc(-c3ccc4c(c3)OCO4)o2)cc1F [Reference Example 71, reference compound]
A) > 10 µM
